# targetSystem: T1, R9-PCP
# T1 chain: RRRRRRRRRXDEXLI
Examples of proteins with documented kcat/KM follow.
metric: kcat/KM (M⁻¹ s⁻¹)

protein	metric	measured
TCPTP (protein) MPTTIEREFEELDTQRRWQPLYLEIRNESHDYPHRVAKFPENRNRNRYRDVSPYDHSRVKLQNAENDYINASLVDIEEAQRSYILTQGPLPNTCCHFWLMVWQQKTKAVVMLNRIVEKESVKCAQYWPTDDQEMLFKETGFSVKLLSEDVKSYYTVHLLQLENINSGETRTISHFHYTTWPDFGVPESPASFLNFLFKVRESGSLNPDHGPAVIHCSAGIGRSGTFSLVDTCLVLMEKGDDINIKQVLLNMRKYRMGLIQTPDQLRFSYMAIIEGAKCIKGDSSIQKRWKELSKEDLSPAFDHSPNKIMTEKYN	kcat/KM	457
PTP1B (construct not stated) (protein) MEMEKEFEQIDKSGSWAAIYQDIRHEASDFPCRVAKLPKNKNRNRYRDVSPFDHSRIKLHQEDNDYINASLIKMEEAQRSYILTQGPLPNTCGHFWEMVWEQKSRGVVMLNRVMEKGSLKCAQYWPQKEEKEMIFEDTNLKLTLISEDIKSYYTVRQLELENLTTQETREILHFHYTTWPDFGVPESPASFLNFLFKVRESGSLSPEHGPVVVHCSAGIGRSGTFCLADTCLLLMDKRKDPSSVDIKKVLLEMRKFRMGLIQTADQLRFSYLAVIEGAKFIMGDSSVQDQWKELSHEDLEPPPEHIPPPPRPPKRILEPHN	kcat/KM	14700
SHP2 (protein) AEIESRVRELSKLAETTDKVKQGFWEEFETLQQQECKLLYSRKEGQRQENKNKNRYKNILPFDHTRVVLHDGDPNEPVSDYINANIIMPEFETKCNNSKPKKSYIATQGCLQNTVNDFWRMVFQENSRVIVMTTKEVERGKSKCVKYWPDEYALKEYGVMRVRNVKESAAHDYTLRELKLSKVGQGNTERTVWQYHFRTWPDHGVPSDPGGVLDFLEEVHHKQESIMDAGPVVVHCSAGIGRTGTFIVIDILIDIIREKGVDCDIDVPKTIQMVRSQRSGMVQTEAQYRFIYMAVQHYIETLQRR	kcat/KM	248
VHR (protein) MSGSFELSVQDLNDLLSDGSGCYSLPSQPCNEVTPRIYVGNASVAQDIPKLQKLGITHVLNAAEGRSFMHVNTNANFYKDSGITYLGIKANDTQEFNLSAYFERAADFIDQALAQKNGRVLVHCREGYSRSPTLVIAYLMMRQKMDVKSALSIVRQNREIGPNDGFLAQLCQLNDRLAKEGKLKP	kcat/KM	6240
